Documented Ki across a set of compounds
# ASSAYED SYSTEM: Kappa-type opioid receptor (Homo sapiens, UniProt P41145)
# Sequence (P41145 whole entry): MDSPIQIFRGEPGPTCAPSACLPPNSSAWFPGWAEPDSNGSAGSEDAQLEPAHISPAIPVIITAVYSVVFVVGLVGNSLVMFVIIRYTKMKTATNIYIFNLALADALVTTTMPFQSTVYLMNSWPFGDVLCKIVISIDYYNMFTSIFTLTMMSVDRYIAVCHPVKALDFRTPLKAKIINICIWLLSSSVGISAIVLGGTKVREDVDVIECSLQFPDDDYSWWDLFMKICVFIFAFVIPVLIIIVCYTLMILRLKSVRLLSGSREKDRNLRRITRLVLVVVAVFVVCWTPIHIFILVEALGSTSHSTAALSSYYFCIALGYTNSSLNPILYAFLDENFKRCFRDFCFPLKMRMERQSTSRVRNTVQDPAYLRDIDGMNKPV
# PROCEDURE TEXT: Displacement of [3H]-U69593 from human kappa opioid receptor expressed in CHO cells after 60 mins by scintillation counting analysis
# Assay type: cell-based
Non-standard residues stand in square brackets, D forms with d. Residues, ends and D or L forms follow the SMILES beside them. *: point of attachment. βGlc = OC[C@H]1O[C@@H](*)[C@H](O)[C@@H](O)[C@@H]1O; Aib = CC(C)(N)C(=O)O
ENDPOINT LABEL: Ki (nM)

[
  {
    "COMPOUND": "CC(C)C[C@H](NC(=O)[C@H](CO[C@@H]1O[C@H](CO)[C@@H](O)[C@H](O)[C@H]1O)NC(=O)[C@H](CCCCN)NC(=O)[C@H](CC(C)C)NC(=O)[C@H](C)NC(=O)[C@H](CCCCN)NC(=O)[C@H](CCC(=O)O)NC(=O)C(C)(C)NC(=O)[C@H](CC(C)C)NC(=O)[C@H](CC(N)=O)NC(=O)[C@@H]1CCCN1C(=O)[C@H](Cc1ccccc1)N(C)C(=O)CNC(=O)[C@@H](C)NC(=O)[C@@H](N)Cc1ccc(O)cc1)C(N)=O",
    "UNIT ANNOTATION": "nM",
    "OBS VALUE": 340
  },
  {
    "COMPOUND": "CC(C)C[C@H](NC(=O)[C@H](CO[C@@H]1O[C@H](CO)[C@@H](O)[C@H](O)[C@H]1O)NC(=O)[C@H](CCCCN)NC(=O)[C@H](CC(C)C)NC(=O)[C@H](C)NC(=O)[C@H](CCCCN)NC(=O)[C@H](CCC(=O)O)NC(=O)C(C)(C)NC(=O)[C@H](CC(C)C)NC(=O)[C@H](CC(N)=O)NC(=O)[C@@H]1CCCN1C(=O)CCNC(=O)[C@H](Cc1ccccc1)N(C)C(=O)CNC(=O)[C@@H](C)NC(=O)[C@@H](N)Cc1ccc(O)cc1)C(N)=O",
    "UNIT ANNOTATION": "nM",
    "OBS VALUE": 100
  },
  {
    "COMPOUND": "CC(C)C[C@H](NC(=O)[C@H](CO[C@@H]1O[C@H](CO)[C@@H](O)[C@H](O)[C@H]1O)NC(=O)[C@H](CCCCN)NC(=O)[C@H](CC(C)C)NC(=O)[C@H](C)NC(=O)[C@H](CCCCN)NC(=O)[C@H](CCC(=O)O)NC(=O)C(C)(C)NC(=O)[C@H](CC(C)C)NC(=O)[C@H](CC(N)=O)NC(=O)[C@H](C)NC(=O)[C@H](CC(C)C)NC(=O)[C@H](Cc1ccccc1)NC(=O)CNC(=O)[C@@H](NC(=O)[C@@H](N)Cc1ccc(O)cc1)[C@@H](C)O)C(N)=O (H-YTGFLANL[Aib]EKALKS(βGlc)L-NH2)",
    "UNIT ANNOTATION": "nM",
    "OBS VALUE": 9.7
  },
  {
    "COMPOUND": "CC(C)C[C@H](NC(=O)[C@H](CO[C@@H]1O[C@H](CO)[C@@H](O)[C@H](O)[C@H]1O)NC(=O)[C@H](CCCCN)NC(=O)[C@H](CC(C)C)NC(=O)[C@H](C)NC(=O)[C@H](CCCCN)NC(=O)[C@H](CCC(=O)O)NC(=O)C(C)(C)NC(=O)[C@H](CC(C)C)NC(=O)[C@H](CC(N)=O)NC(=O)[C@@H]1CCCN1C(=O)CNC(=O)[C@H](Cc1ccccc1)N(C)C(=O)CNC(=O)[C@@H](C)NC(=O)[C@@H](N)Cc1ccc(O)cc1)C(N)=O",
    "UNIT ANNOTATION": "nM",
    "OBS VALUE": 45
  }
]

====

# ASSAYED SYSTEM: Mu-type opioid receptor (Homo sapiens, UniProt P35372)
# Sequence (P35372 whole entry): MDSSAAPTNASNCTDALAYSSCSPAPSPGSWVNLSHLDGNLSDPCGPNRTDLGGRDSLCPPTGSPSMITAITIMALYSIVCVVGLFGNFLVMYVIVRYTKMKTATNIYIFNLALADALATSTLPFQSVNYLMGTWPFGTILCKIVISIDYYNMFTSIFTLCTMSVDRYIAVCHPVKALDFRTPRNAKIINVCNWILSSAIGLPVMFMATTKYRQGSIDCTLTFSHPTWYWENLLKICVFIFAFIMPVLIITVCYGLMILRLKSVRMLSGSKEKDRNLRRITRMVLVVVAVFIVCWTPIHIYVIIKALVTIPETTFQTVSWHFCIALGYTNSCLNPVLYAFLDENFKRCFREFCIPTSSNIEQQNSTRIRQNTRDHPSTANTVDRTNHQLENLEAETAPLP
# PROCEDURE TEXT: Displacement of [3H]-DAMGO from human mu opioid receptor expressed in CHO cells after 60 mins by scintillation counting analysis
# Format: cell-based

[
  {
    "SMILES STRING": "CC(C)C[C@H](NC(=O)[C@H](CO[C@@H]1O[C@H](CO)[C@@H](O)[C@H](O)[C@H]1O)NC(=O)[C@H](CC(N)=O)NC(=O)[C@H](CC(C)C)NC(=O)[C@H](C)NC(=O)[C@H](CC(N)=O)NC(=O)[C@H](CC(N)=O)NC(=O)C(C)(C)NC(=O)[C@H](CC(C)C)NC(=O)[C@H](CC(N)=O)NC(=O)CNC(=O)CNC(=O)[C@H](Cc1ccccc1)N(C)C(=O)CNC(=O)[C@@H](C)NC(=O)[C@@H](N)Cc1ccc(O)cc1)C(N)=O",
    "Ki": "5.2 nM"
  }
]

====

Items are presented alongside their recorded Activity.
# ASSAYED SYSTEM: Delta-type opioid receptor (Homo sapiens, UniProt P41143)
# Sequence (P41143 whole entry): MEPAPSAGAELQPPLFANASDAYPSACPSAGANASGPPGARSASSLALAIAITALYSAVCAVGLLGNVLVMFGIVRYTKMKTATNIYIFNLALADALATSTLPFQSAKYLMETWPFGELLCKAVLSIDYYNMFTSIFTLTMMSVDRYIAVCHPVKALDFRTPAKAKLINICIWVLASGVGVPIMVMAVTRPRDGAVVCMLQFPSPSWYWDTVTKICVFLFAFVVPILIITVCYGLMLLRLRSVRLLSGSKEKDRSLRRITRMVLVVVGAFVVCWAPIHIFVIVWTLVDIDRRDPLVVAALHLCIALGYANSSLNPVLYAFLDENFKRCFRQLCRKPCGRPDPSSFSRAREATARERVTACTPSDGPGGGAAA
# PROCEDURE TEXT: Displacement of [3H]-naltrindole from human delta opioid receptor expressed in CHO cells at 10 uM after 3 hrs by scintillation counting analysis relative to control
# Assay type: cell-based
ENDPOINT LABEL: Activity (%)

[
  {
    "SMILES STRING": "CC(C)C[C@H](NC(=O)[C@H](CO[C@@H]1O[C@H](CO)[C@@H](O)[C@H](O)[C@H]1O)NC(=O)[C@H](CC(N)=O)NC(=O)[C@H](CC(C)C)NC(=O)[C@H](C)NC(=O)[C@H](CC(N)=O)NC(=O)[C@H](CC(N)=O)NC(=O)C(C)(C)NC(=O)[C@H](CC(C)C)NC(=O)[C@H](CC(N)=O)NC(=O)CNC(=O)CNC(=O)[C@H](Cc1ccccc1)N(C)C(=O)CNC(=O)[C@@H](C)NC(=O)[C@@H](N)Cc1ccc(O)cc1)C(N)=O",
    "OBS VALUE": 22
  },
  {
    "SMILES STRING": "CC(C)C[C@H](NC(=O)[C@H](CO[C@@H]1O[C@H](CO)[C@@H](O)[C@H](O)[C@H]1O)NC(=O)[C@H](CCCCN)NC(=O)[C@H](CC(C)C)NC(=O)[C@H](C)NC(=O)[C@H](CCCCN)NC(=O)[C@H](CCC(=O)O)NC(=O)C(C)(C)NC(=O)[C@H](CC(C)C)NC(=O)[C@H](CC(N)=O)NC(=O)[C@@H]1CCCN1C(=O)[C@H](Cc1ccccc1)N(C)C(=O)CNC(=O)[C@@H](C)NC(=O)[C@@H](N)Cc1ccc(O)cc1)C(N)=O",
    "OBS VALUE": 31
  },
  {
    "SMILES STRING": "CC(C)C[C@H](NC(=O)[C@H](CO[C@@H]1O[C@H](CO)[C@@H](O)[C@H](O)[C@H]1O)NC(=O)[C@H](CCCCN)NC(=O)[C@H](CC(C)C)NC(=O)[C@H](C)NC(=O)[C@H](CCC(=O)O)NC(=O)[C@H](CCC(=O)O)NC(=O)C(C)(C)NC(=O)[C@H](CC(C)C)NC(=O)[C@H](CC(N)=O)NC(=O)CNC(=O)CNC(=O)[C@H](Cc1ccccc1)N(C)C(=O)CNC(=O)[C@@H](C)NC(=O)[C@@H](N)Cc1ccc(O)cc1)C(N)=O",
    "OBS VALUE": 0
  },
  {
    "SMILES STRING": "CC(C)C[C@H](NC(=O)[C@H](CO[C@@H]1O[C@H](CO)[C@@H](O)[C@H](O)[C@H]1O)NC(=O)[C@H](CCCCN)NC(=O)[C@H](CC(C)C)NC(=O)[C@H](C)NC(=O)[C@H](CC(N)=O)NC(=O)[C@H](CC(N)=O)NC(=O)C(C)(C)NC(=O)[C@H](CC(C)C)NC(=O)[C@H](CC(N)=O)NC(=O)CNC(=O)CNC(=O)[C@H](Cc1ccccc1)N(C)C(=O)CNC(=O)[C@@H](C)NC(=O)[C@@H](N)Cc1ccc(O)cc1)C(N)=O",
    "OBS VALUE": 0
  },
  {
    "SMILES STRING": "CC(C)C[C@H](NC(=O)[C@H](CO[C@@H]1O[C@H](CO)[C@@H](O)[C@H](O)[C@H]1O)NC(=O)[C@H](CCCCN)NC(=O)[C@H](CC(C)C)NC(=O)[C@H](C)NC(=O)[C@H](CC(N)=O)NC(=O)[C@H](CCC(=O)O)NC(=O)C(C)(C)NC(=O)[C@H](CC(C)C)NC(=O)[C@H](CC(N)=O)NC(=O)CNC(=O)CNC(=O)[C@H](Cc1ccccc1)N(C)C(=O)CNC(=O)[C@@H](C)NC(=O)[C@@H](N)Cc1ccc(O)cc1)C(N)=O",
    "OBS VALUE": 0
  },
  {
    "SMILES STRING": "CC(C)C[C@H](NC(=O)[C@H](CO[C@@H]1O[C@H](CO)[C@@H](O)[C@H](O)[C@H]1O)NC(=O)[C@H](CCCCN)NC(=O)[C@H](CC(C)C)NC(=O)[C@H](C)NC(=O)[C@H](CCCCN)NC(=O)[C@H](CCCCN)NC(=O)C(C)(C)NC(=O)[C@H](CC(C)C)NC(=O)[C@H](CC(N)=O)NC(=O)CNC(=O)CNC(=O)[C@H](Cc1ccccc1)N(C)C(=O)CNC(=O)[C@@H](C)NC(=O)[C@@H](N)Cc1ccc(O)cc1)C(N)=O",
    "OBS VALUE": 0
  }
]
